Reported TGI values follow for various molecules
- Test system: SN12C renal
- assay_summary: NCI tumour cell line growth inhibition, 48 h

| molecule | TGI |
| --- | --- |
| COc1ccc(/C=N/NC(=O)O)cc1 | > 100 µM |
| Cc1cccc(NC(=O)CC2C(=O)Nc3ccccc3S2(=O)=O)c1C (stereo not drawn) | > 100 µM |
| N#Cc1ccc(-n2cnc(NC(=O)[C@H]3CCN(C#N)C3)c2)cc1 | > 70.3 µM |

###

- Tested on: MDA-MB-231 breast
- assay_summary: NCI tumour cell line growth inhibition, 48 h
Measured TGI, listed per entry.

| mol_smiles | TGI |
| --- | --- |
| CCOC(=O)c1c(C)c2c(n1C)CSc1cc(S(=O)(=O)c3ccccc3)c(=O)[nH]c1-2 | > 100 µM |
| COc1cc2cc(C(=O)O)[nH]c2cc1OCc1ccccc1 | > 100 µM |
| O=[N+]([O-])c1cc(Cl)ccc1S(=O)(=O)c1ccccc1 | > 100 µM |
